QUANTITY NAME: melting point

Example results:
COMPOUND: CCN(CC)c1nsc(NC(=O)NC)c1C(N)=O
melting point: 195 to 197 °C
//
COMPOUND: Cc1cc(NC(=O)c2ccccc2C)ccc1Br
melting point: 144 to 146 °C
//
COMPOUND: COC(=O)c1ccc2c(c1)Sc1ccccc1N=C2Cl
melting point: 134 to 136 °C
//
COMPOUND: CCOC(=O)/C=C/c1cc(OCc2cn(-c3ccc(C(F)(F)F)cn3)nc2C)nn1C
melting point: 173 to 174 °C
//
COMPOUND: CCCN(CCc1c[nH]c2ccc(F)cc12)C1COc2ccc3ncccc3c2C1 (configuration not stated)
melting point: 67 °C
//
COMPOUND: N#Cc1nc(Cl)c(Cl)nc1C#N
melting point: 180 to 182 °C
//
COMPOUND: Cn1c(C(F)(F)F)cc(=O)n(-c2ccc3snc(C(Cl)Br)c3c2)c1=O (configuration not stated)
melting point: 93 to 96 °C
//
COMPOUND: CCCCc1ccc2c(c1)-c1[nH]c(C(=O)OC)cc(=O)c1CS2
melting point: 144 to 146 °C
//
COMPOUND: O=C1COC(Nc2ccc(C(O)(C(F)(F)F)C(F)(F)F)cc2)=N1
melting point: 272 to 274 °C
//
COMPOUND: O=C1CC(c2ccccc2)CC(=O)O1
melting point: 102 to 103 °C

In the following, a different compound is considered.
Summary for this compound, O=C(CCc1c[nH]c2ccccc12)NCc1ccccc1 : melting point is 73 to 75 °C
